testedTarget: E. coli GroEL/ES chaperonin system (Escherichia coli)
Sequence (P0A6F5 2-548): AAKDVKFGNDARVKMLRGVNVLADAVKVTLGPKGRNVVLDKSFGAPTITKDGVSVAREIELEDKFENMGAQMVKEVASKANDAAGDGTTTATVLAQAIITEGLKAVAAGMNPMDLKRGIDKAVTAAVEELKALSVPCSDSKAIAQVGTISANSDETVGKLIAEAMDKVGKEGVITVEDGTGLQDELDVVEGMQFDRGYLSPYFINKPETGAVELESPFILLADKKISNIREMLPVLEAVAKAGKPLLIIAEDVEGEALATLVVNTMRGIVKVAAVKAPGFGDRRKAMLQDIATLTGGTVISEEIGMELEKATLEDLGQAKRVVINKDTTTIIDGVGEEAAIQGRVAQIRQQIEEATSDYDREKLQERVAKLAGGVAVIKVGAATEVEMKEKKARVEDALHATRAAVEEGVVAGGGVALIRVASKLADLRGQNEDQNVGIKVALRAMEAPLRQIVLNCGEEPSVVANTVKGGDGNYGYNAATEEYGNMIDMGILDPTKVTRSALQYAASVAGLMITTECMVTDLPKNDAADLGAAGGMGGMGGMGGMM
method: biochemical
pIC50: −log10 of the molar value.

[
  {
    "compound": "CC(C)n1c(/C=C/C(O)CC(O)CC(=O)O)c(-c2ccc(F)cc2)c2ccccc21 (stereo not shown) [Compound 60, Fluvastatin sodium]",
    "pIC50": "< 3.60"
  }
]
